# System: Plasmodium falciparum
# Protocol Text: GSK_TCMDC: Inhibition of Plasmodium falciparum 3D7 in whole erythrocytes, using parasite LDH activity as an index of growth.
# Assay type: functional, organism-based
# Test Conditions: Plasmodium falciparum, 3D7
Below, each entry is listed alongside its reported XC50.

>  <Compound>
COc1ccc(NC(=O)[C@H](Cc2ccccc2)Nc2cc(C)nc(NCCOc3ccccc3)n2)cc1

>  <Unit Info>
nM

>  <XC50>
1070

$$$$
>  <Compound>
FC(F)(F)c1ccc2[nH]c(-c3ccc(-c4cccc(CNCCN5CCNCC5)c4)s3)nc2c1

>  <Unit Info>
nM

>  <XC50>
1040

$$$$
>  <Compound>
Cn1c(NC2CCN(CC3CCN(C(=O)/C=C/c4ccc(Cl)c(Cl)c4)CC3)CC2)nc2ccccc21

>  <Unit Info>
nM

>  <XC50>
148

$$$$
>  <Compound>
CC=CCON1C(=N)NC(=N)NC1(C)C

>  <Unit Info>
nM

>  <XC50>
27.9

$$$$
>  <Compound>
CCN(CC)CCCC(C)Nc1c2ccccc2nc2c1ccc1ccccc12 (stereo not given)

>  <Unit Info>
nM

>  <XC50>
1090

$$$$
>  <Compound>
Cc1cc(NC(=O)CCN2CCN(c3cccc(Cl)c3Cl)CC2)ccc1N1CCN(C(C)C)CC1

>  <Unit Info>
nM

>  <XC50>
847

$$$$
>  <Compound>
CCOC(=O)c1cncc(/C=C/c2cc(C)cnc2N)c1

>  <Unit Info>
nM

>  <XC50>
424

$$$$
>  <Compound>
CC(=O)Nc1ncc(C(=O)Nc2cccc(-c3ccc(-c4nc5ccccc5[nH]4)cc3)c2)s1

>  <Unit Info>
nM

>  <XC50>
669

$$$$
>  <Compound>
COc1ccc(N2CCN(c3nc(N)c4cc(OC)c(OC)cc4n3)CC2C)cc1 (stereo not given)

>  <Unit Info>
nM

>  <XC50>
1420

$$$$
>  <Compound>
Cc1ccc(C(=O)Nc2cccc(CN3CCCN(Cc4ccc(O)cc4)CC3)c2)cc1

>  <Unit Info>
nM

>  <XC50>
1090

$$$$
>  <Compound>
CC(C)CN1CCN(CCNc2c3ccccc3nc3ccccc23)CC1

>  <Unit Info>
nM

>  <XC50>
818

$$$$
>  <Compound>
Fc1ccc(Nc2nnc(CNC3CCN(Cc4ccc(Cl)c(Cl)c4)CC3)[nH]2)cc1

>  <Unit Info>
nM

>  <XC50>
1380

$$$$
>  <Compound>
COC(=O)c1ccc2nc(-c3cc(OC)c(O)c(C(=O)NC4CCN(Cc5ccccc5)CC4)c3)[nH]c2c1

>  <Unit Info>
nM

>  <XC50>
1180

$$$$
>  <Compound>
CCCC(C(CC1CCC(C)CC1)C(=O)NC(CCCNc1ncccn1)C(=O)Nc1nccs1)N(O)C=O (stereo not given)

>  <Unit Info>
nM

>  <XC50>
187

$$$$
>  <Compound>
Cc1csc(-c2ncc(OC[C@@H](N)Cc3ccccc3)cc2-c2ccc3[nH]nc(C)c3c2)c1

>  <Unit Info>
nM

>  <XC50>
836

$$$$
>  <Compound>
OCCOCn1cnc2cnc(N[C@H]3OC[C@H](O)[C@@H](O)[C@@H]3O)nc21

>  <Unit Info>
nM

>  <XC50>
1640

$$$$
>  <Compound>
O=C(c1ccccc1[N+](=O)[O-])N(Cc1ccccc1)c1ccccn1

>  <Unit Info>
nM

>  <XC50>
192

$$$$
>  <Compound>
O=C(Nc1ccc(OC2CCN(Cc3ccc(F)cc3)C2)c(Cl)c1)c1ccc(F)cc1 (stereo not given)

>  <Unit Info>
nM

>  <XC50>
490

$$$$
>  <Compound>
O=C(Nc1ccc(C(F)(F)F)cc1)NC1CCN(c2ccnc3cc(Cl)ccc23)C1 (stereo not given)

>  <Unit Info>
nM

>  <XC50>
139

$$$$
>  <Compound>
Cc1ccc2[nH]c(Nc3ccc(Nc4nc5cc(C)ccc5[nH]4)c(C)c3)nc2c1

>  <Unit Info>
nM

>  <XC50>
769

$$$$
